Origin of measurements: patent US20120039904A1

- TARGET OR SYSTEM: T1, human ASCT2 (system ASC amino acid transporter 2), endogenous on human tumour cell lines (human, UniProt Q15758 1-541)
- T1 construct: Endogenous ASCT2 of cell lines KMS-11 (stated to express ASCT2 mRNA), WiDr and OPM-2; also called SLC1A5; ASCT2 on KMS-11, OPM-2, WiDr cells
- T1 sequence: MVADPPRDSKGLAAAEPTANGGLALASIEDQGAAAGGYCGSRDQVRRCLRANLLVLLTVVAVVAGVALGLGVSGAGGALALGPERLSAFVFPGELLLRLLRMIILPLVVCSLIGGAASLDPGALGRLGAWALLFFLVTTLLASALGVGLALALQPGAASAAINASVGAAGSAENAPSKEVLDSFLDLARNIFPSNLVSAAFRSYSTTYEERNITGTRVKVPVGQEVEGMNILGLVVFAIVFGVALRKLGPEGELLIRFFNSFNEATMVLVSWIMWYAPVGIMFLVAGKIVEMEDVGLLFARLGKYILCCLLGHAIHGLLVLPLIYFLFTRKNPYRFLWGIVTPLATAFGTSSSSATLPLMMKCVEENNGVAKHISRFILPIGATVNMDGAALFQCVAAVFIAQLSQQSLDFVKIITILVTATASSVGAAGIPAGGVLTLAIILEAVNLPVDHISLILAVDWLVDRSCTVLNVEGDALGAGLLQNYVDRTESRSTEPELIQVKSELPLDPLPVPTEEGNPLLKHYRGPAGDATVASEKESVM
- ASSAY INFO: flow cytometry on KMS-11 cells
MEASUREMENT LABEL: binding result

1. anti-ASCT2 humanized antibody KM4008HV2LV3 (antibody, V domains shown, Expressed from vector pKANTEX93 with human CH and CL; SDS-PAGE pattern of an IgG class antibody) VH: QVQLVQSGSELKKPGAPVKVSCKASGYTFSTFGMSWVRQAPGQGLKWMGWIHTYAGVPIYGDDFKGRFVFSLDTSVSTAYLQISSLKAEDTAVYFCARRSDNYRYFFDYWGQGTTVTVSS VL: DIQMTQSPSSLSASLGDRVTITCRASQDIRNYLNWYQQKPGKAPKLLIYYTSRLHSGVPSRFSGSGSGTDYTLTISSLQPEDFATYFCQQGHTLPPTFGQGTKLEIK	binds
2. anti-ASCT2 monoclonal antibody KM4008 (antibody, V domains shown, mouse IgG3, kappa (amplified with a mouse Ig kappa primer)) VH: QIQLVQSGPELKKPGETVKISCKASGYTFTTFGMSWVKQVPGKGLKWMGWIHTYAGVPIYGDDFKGRFAFSLETSASTAYLQINNVKNEDTATYFCARRSDNYRYFFDYWGQGTTLTVSS VL: DIQMTQTTSSLSASLGDRVTISCRASQDIRNYLNWYQRKPHGTVKLLIYYTSRLHSGVPSRFSGSGSGTDYSLTISNLEQEDIATYFCQQGHTLPPTFGGGTKLEIKR	binds
3. anti-ASCT2 monoclonal antibody KM4018 (antibody, rat IgG2a, V domains shown, rat IgG2a, kappa) VH: EVQLVESGGGLVQSGRSIRLSCAASGFSFSNYYMAWVRQAPSKGLEWVASITKGGGNTYYRDSVKGRFTFSRDNAKSTLYLQMDSLRSEDTATYYCARQVTIAAVSTSYFDSWGQGVMVTVSS VL: DIVLTQSPALAVSLGQRATISCKTNQKVDYYGNSYVYWYQQKPGQQPKLLIYLASNLASGIPARFSGRGSGTDFTLTIDPVEADDTATYYCQQSRNLPYTFGAGTKLELKR	binds
